- System: CAKI-1 renal
- experiment description: NCI tumour cell line growth inhibition, 48 h; in the data active means GI50 below about 0.43 µM; inactive means the rest
Result category, one only: 1.0 (active), 0.0 (inactive)

# compound, system name, cat
measured = [
    ("CC/C(=C(/CC)c1ccc([O-])cc1)c1ccc([O-])cc1.CC/C(=C(\\CC)c1ccc([O-])cc1)c1ccc([O-])cc1.O=C([CH-]C(=O)c1ccccc1)c1ccccc1.O=C([CH-]C(=O)c1ccccc1)c1ccccc1.O=C([CH-]C(=O)c1ccccc1)c1ccccc1.O=C([CH-]C(=O)c1ccccc1)c1ccccc1.[Ti+4].[Ti+4]", "CAKI-1 renal", 0.0),
    ("CN(C)CCOc1ccc(/C(=C(/CCCl)c2ccccc2)c2ccccc2)cc1", "CAKI-1 renal", 0.0),
    ("O=C(c1ccco1)c1nc2cc(F)ccc2[n+]([O-])c1C(F)(F)F", "CAKI-1 renal", 0.0),
]

In this assay, the call recorded for Oc1ccc(O)c(-c2cc(-c3ccccc3)nn2-c2ccccc2)c1 was what?
0.0

Ok, now O=C(Nc1ccc(Cl)cc1F)c1cc(I)ccc1O
0.0

Ok, now CN(C)c1ncnc2c1nnn2C1OC(CO)C(O)C1O (centres undefined)
1.0

Ok, now COc1cc2nccc(Oc3ccc(NC(=O)C4(C(=O)Nc5ccc(F)cc5)CC4)cc3)c2cc1Oc1ccc(N)cn1
0.0

Ok, now COc1cccc2c1-c1c(c3ccc([N+](=O)[O-])cc3c(=O)n1CCCCl)C2=O
0.0

Ok, now CCOC(=O)C1=C(C)NC2SC(=O)/C(=C\c3ccccc3O)N2C1c1ccccc1 (centres undefined)
0.0

Ok, now CN1CCN(Cc2ccc(NC(=O)c3cncc(C#Cc4cncc5ncccc45)c3)cc2C(F)(F)F)CC1
0.0

----------
This listing pairs molecules with measured TGI.
- Tested on: LOX IMVI melanoma
- experiment description: NCI tumour cell line growth inhibition, 48 h

Some solved entries appear below for comparison.
# molecule, TGI
records = [
    ("Cc1cnc(-c2c[nH]c3ccccc23)nc1-c1c[nH]c2ccccc12", "17.1 µM"),
    ("COC(=O)[C@]12CSC[C@H]1C[C@H](c1ccccc1OC)N2", "> 100 µM"),
    ("Cc1cccc(/C=C2\\CCCc3ccccc3C2=O)c1", "37 µM"),
    ("CC(C)(C)c1[nH]cnc1/C=c1\\[nH]c(=O)/c(=C/c2ccccc2)[nH]c1=O", "17.7 µM"),
    ("COc1cc(-c2cc(=O)c3c(O)c(OC)c(OC)c(OC)c3o2)ccc1O", "68.8 µM"),
]

Lab request: please report TGI under test system LOX IMVI melanoma for CC1CCC(O)(C(C)(C(=O)O)c2ccccc2)CC1 (centres undefined)
> 100 µM

----------
This listing pairs compounds with measured TGI.
- System: SNB-19 CNS
- experiment description: NCI tumour cell line growth inhibition, 48 h

Some solved entries appear below for comparison.
# compound, TGI
records = [
    ("C=CC[P+](c1ccccc1)(c1ccccc1)c1ccccc1", "> 100 µM"),
    ("CC(=O)OC[C@@H]1[C@H]2CC[C@]3(C)[C@@H](OC(C)=O)CC[C@H]3[C@@H]2CC[C@H]1C1(C)SCCS1", "> 25 µM"),
    ("COC(=O)c1ccc(NC(=O)Nc2ccc3oc(=O)c4ccccc4c3c2)cc1", "89.8 µM"),
    ("COC(=O)Nc1nc2ccc(S(=O)(=O)n3nnc4ccccc43)cc2[nH]1", "> 100 µM"),
]

Now look at this one.
Lab request: please report TGI under test system SNB-19 CNS for C=C(C)C1CC2(C)C(C)CC(OC(=O)/C(C)=C\C)CC2C(OC(=O)/C(C)=C\C)C1O (stereo not given)
> 100 µM
